Values from patent US20220017616A1

Please provide measured Kd for the entries that follow.
- target-or-test-system: T1, human CD112R (N81D)
- T1 chain: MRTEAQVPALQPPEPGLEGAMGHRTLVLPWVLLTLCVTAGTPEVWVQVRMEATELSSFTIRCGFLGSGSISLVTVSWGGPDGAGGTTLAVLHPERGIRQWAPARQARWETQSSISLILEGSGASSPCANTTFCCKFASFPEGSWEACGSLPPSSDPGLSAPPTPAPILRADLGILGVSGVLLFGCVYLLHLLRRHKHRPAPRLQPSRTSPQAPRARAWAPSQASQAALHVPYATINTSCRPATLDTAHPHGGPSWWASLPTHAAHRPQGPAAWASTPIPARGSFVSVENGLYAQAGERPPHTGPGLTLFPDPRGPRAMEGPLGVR
- assay: Biacore SPR

Entry 24F1 (antibody, V domains shown) VH: EVQLVESGGGLVQPGGSLRLSCAASGFTFSRDDMHWVRQATGKGLEWVAGIDNAGDTYYPGSVKGRFTISRENAKNSLYLQMNSLRAGDTAIYYCAREGQWPYGMDVWGQGTTVTVSS VL: DIQMTQSPSSLSASVGDRVTITCRASQGIRNDLGWYQQKPGKAPKRLIYSASSLQSGVSSRFSGSGSGTEFTLTISSLQPEDFATYYCLQSNSYPLTFGGGTKVEIKR — recorded Kd = 0.0506 nM

Measured Kd of 29E10 (antibody, V domains shown) VH: EVQLVESGGGLVQPGGSLRLSCAASGFTFRNYDMHWVRQVPGKGLEWVSDIGNSGETYYLGSVKGRFTISRENAKNSLYLQMNSLRAGDTAVYYCVREEFGYGMDVWGQGTTVTVSS VL: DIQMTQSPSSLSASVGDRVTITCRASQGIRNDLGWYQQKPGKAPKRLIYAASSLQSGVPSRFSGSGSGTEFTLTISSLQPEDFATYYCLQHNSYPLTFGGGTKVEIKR : 0.126 nM

For record 1E1.016 (antibody, V domains shown) VH: QVQLVQSGAEVKKPGASVKVSCKASGYTFTDYYIYWVRQAPGQGLEWMGWINPNAGGTNYAQKFQGRVTMTRDTSISTAYIELSRLRSDDTAVYYCAREDNFNGMDVWGQGTTVTVSS VL: DIQMTQSPSSLSASVGDRVTITCRASQGIRNDLGWYQQKPGKAPKRLIYAASSLQSGVPSRFSGSGSGTEFTLTISSLQPEDFATYYCLQLNAYPLTFGGGTKVEIKR the listed Kd is 0.25 nM

Noted for 24F1.001 (antibody, V domains shown) VH: EVQLVESGGGLVQPGGSLRLSCAASGFTFSRDDMHWVRQATGKGLEWVAGIDNAGETYYPGSVKGRFTISRENAKNSLYLQMNSLRAGDTAIYYCAREGQWPYGMDVWGQGTTVTVSS VL: DIQMTQSPSSLSASVGDRVTITCRASQGIRNDLGWYQQKPGKAPKRLIYSASSLQSGVSSRFSGSGSGTEFTLTISSLQPEDFATYYCLQSNSYPLTFGGGTKVEIKR : its Kd reads 0.0594 nM
